target: T1, AFP158/HLA-A*02:01 complex (human); test: SPR, crude scFv captured, pMHC analyte;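 further: Peptide-MHC complex at several concentrations passed over captured scFv, association then buffer-driven dissociation, on- and off-rates fitted from the curves and KD estimated from them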
T1 construct: flowed as analyte in SPR
outcome-measure: kon

Below are worked cases with known answers.
AS170036 VL1VH1-VHS57M (scFv) scFv: QSALTQPRSVSGSPGQSVTISCAGTSSDVGSENYVSWYQQHPGKAPKLMIYQVNKRASGVPDRFSGSKSGNTASLTISGLQAEDEADYYCASYRSSDHNIVFGGGTKLTVLGGGGSGGGGSGGGGSEVQLVESGGGLVQPGGSLRLSCAASGFTFSSYAMSWVRQAPGKGLEWVSTINSGTGMPYYADSVKGRFTISRDNSKNTLYLQMNSLRAEDTAVYYCAKNFFDGSWFLGPPAMDYWGQGTLVTVSSHHHHHH :: 280000 M⁻¹ s⁻¹
AS170036 VL1VH1-VHG56N (scFv) scFv: QSALTQPRSVSGSPGQSVTISCAGTSSDVGSENYVSWYQQHPGKAPKLMIYQVNKRASGVPDRFSGSKSGNTASLTISGLQAEDEADYYCASYRSSDHNIVFGGGTKLTVLGGGGSGGGGSGGGGSEVQLVESGGGLVQPGGSLRLSCAASGFTFSSYAMSWVRQAPGKGLEWVSTINSGTNSPYYADSVKGRFTISRDNSKNTLYLQMNSLRAEDTAVYYCAKNFFDGSWFLGPPAMDYWGQGTLVTVSSHHHHHH :: 270000 M⁻¹ s⁻¹
AS170036 VL1VH1-VHS57R (scFv) scFv: QSALTQPRSVSGSPGQSVTISCAGTSSDVGSENYVSWYQQHPGKAPKLMIYQVNKRASGVPDRFSGSKSGNTASLTISGLQAEDEADYYCASYRSSDHNIVFGGGTKLTVLGGGGSGGGGSGGGGSEVQLVESGGGLVQPGGSLRLSCAASGFTFSSYAMSWVRQAPGKGLEWVSTINSGTGRPYYADSVKGRFTISRDNSKNTLYLQMNSLRAEDTAVYYCAKNFFDGSWFLGPPAMDYWGQGTLVTVSSHHHHHH :: 200000 M⁻¹ s⁻¹
AS170036 VL1VH1-VHG108A (scFv) scFv: QSALTQPRSVSGSPGQSVTISCAGTSSDVGSENYVSWYQQHPGKAPKLMIYQVNKRASGVPDRFSGSKSGNTASLTISGLQAEDEADYYCASYRSSDHNIVFGGGTKLTVLGGGGSGGGGSGGGGSEVQLVESGGGLVQPGGSLRLSCAASGFTFSSYAMSWVRQAPGKGLEWVSTINSGTGSPYYADSVKGRFTISRDNSKNTLYLQMNSLRAEDTAVYYCAKNFFDGSWFLAPPAMDYWGQGTLVTVSSHHHHHH :: 290000 M⁻¹ s⁻¹

Now for a further binder.
Complete the entry with kon for AS170036 VL1VH1-VHS57Q (scFv) scFv: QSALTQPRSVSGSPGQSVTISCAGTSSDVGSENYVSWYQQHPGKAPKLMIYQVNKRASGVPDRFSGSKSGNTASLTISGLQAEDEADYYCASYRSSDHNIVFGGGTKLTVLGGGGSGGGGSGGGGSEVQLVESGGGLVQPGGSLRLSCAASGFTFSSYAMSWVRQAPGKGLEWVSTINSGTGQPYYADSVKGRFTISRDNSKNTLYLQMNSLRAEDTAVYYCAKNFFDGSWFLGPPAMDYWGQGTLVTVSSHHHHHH
210000 M⁻¹ s⁻¹
